System: IL-2 stimulated STAT5 phosphorylation on Tyr694 (JAK1/3)
Experiment: JAK1/3 cellular target modulation: IL-2 stimulated phospho-STAT5 in PBMC
Format: cell-based
Conditions: human PBMC, IL-2 25 ng/ml; read-out: IL2-STAT5 IC50
pIC50: −log10 of the molar value.

# COMPOUND, pIC50
rows = [
    ("N#CCC(=O)N1CCC[C@@H](Nc2c(-c3ccnc(N)n3)cnc3[nH]ccc23)C1", "6.00 to 7.00"),
    ("Cc1nccc(-c2cnc3[nH]ccc3c2N[C@@H]2C[C@H](C)CN(C(=O)CC#N)C2)n1", "≥ 7.00"),
    ("C[S+]([O-])c1cnc(-c2cnc3[nH]ccc3c2N[C@@H]2CCCN(C(=O)CC#N)C2)s1 (stereo partly shown)", "6.00 to 7.00"),
    ("O[C@H]1CC[C@@H](Nc2c(-c3ncco3)cnc3[nH]ccc23)C1", "6.00 to 7.00"),
    ("CNC(=O)c1coc(-c2cnc3[nH]ccc3c2N[C@@H]2CC[C@H](C)N(C(=O)CC#N)C2)n1", "6.00 to 7.00"),
    ("Cc1cccc(-c2cnc3[nH]ccc3c2N[C@@H]2CCCN(C(=O)CC#N)C2)n1", "≥ 7.00"),
    ("C[C@H]1C[C@@H](Nc2c(-c3ncco3)cnc3[nH]ccc23)CN(C(=O)CC#N)C1 (single isomer, unassigned)", "≥ 7.00"),
    ("CS(=O)(=O)c1cccc(-c2cnc3[nH]ccc3c2N[C@@H]2CCCN(C(=O)CC#N)C2)c1", "6.00 to 7.00"),
    ("CS(=O)(=O)c1cnc(-c2cnc3[nH]ccc3c2N[C@@H]2CCCN(CCC#N)C2)s1", "6.00 to 7.00"),
    ("CNC(=O)c1csc(-c2cnc3[nH]ccc3c2N[C@@H]2CCCN(C(=O)CC#N)C2)n1", "6.00 to 7.00"),
    ("COc1nccc(-c2cnc3[nH]ccc3c2N[C@@H]2CCCN(C(=O)CC#N)C2)n1", "≥ 7.00"),
    ("N#CCC(=O)N1CCC[C@@H](Nc2c(-c3cscn3)cnc3[nH]ccc23)C1", "6.00 to 7.00"),
    ("CS(=O)(=O)c1ccc(-c2cnc3[nH]ccc3c2N[C@@H]2CCCN(C(=O)CC#N)C2)nc1", "≥ 7.00"),
    ("N#CCC(=O)N1CCC[C@@H](Nc2c(-c3ncccn3)cnc3[nH]ccc23)C1", "6.00 to 7.00"),
    ("CSc1nccc(-c2cnc3[nH]ccc3c2N[C@@H]2CCCN(C(=O)CC#N)C2)n1", "≥ 7.00"),
    ("C[C@H]1C[C@@H](Nc2c(-c3cccc(CO)n3)cnc3[nH]ccc23)CN(C(=O)CC#N)C1", "≥ 7.00"),
    ("C[C@H]1C[C@@H](Nc2c(-c3ccn(C(F)F)n3)cnc3[nH]ccc23)CN(C(=O)CC#N)C1", "≥ 7.00"),
    ("N#CCC(=O)N1CCC[C@@H](Nc2c(-c3cncs3)cnc3[nH]ccc23)C1", "6.00 to 7.00"),
    ("Cc1cnc(-c2cnc3[nH]ccc3c2N[C@@H]2CCCN(CCC#N)C2)o1", "≥ 7.00"),
    ("C[C@@H]1C[C@H](Nc2c(-c3ncco3)cnc3[nH]ccc23)CN(C(=O)CC#N)C1 (single isomer, unassigned)", "< 6.00"),
    ("Cn1ccnc1-c1cnc2[nH]ccc2c1N[C@@H]1CCCN(C(=O)CC#N)C1", "< 6.00"),
    ("Cc1ccnc(-c2cnc3[nH]ccc3c2N[C@@H]2CCCN(C(=O)CC#N)C2)c1", "≥ 7.00"),
    ("N#CCC(=O)N1CCC[C@@H](Nc2c(-c3nc(C(N)=O)co3)cnc3[nH]ccc23)C1", "6.00 to 7.00"),
    ("N#CCC(=O)N1CCC[C@@H](Nc2c(-c3ncon3)cnc3[nH]ccc23)C1", "6.00 to 7.00"),
    ("N#CCC(=O)N1CCC[C@@H](Nc2c(-c3nnco3)cnc3[nH]ccc23)C1", "6.00 to 7.00"),
]

----------
Test: GI Exposure PK in Mice
Assay type: in vivo
Settings: mouse; Ileum; male BalbC mice, oral dose of 5 mg/kg
Experimental: The test compound was wetted with ˜0.025% of Tween-20 and triturated in a mortar and pestle, then slowly 0.5% of methyl cellulose was added to make up the final volume to 7.25 mL. […] Plasma and GI tissue levels of test compound were determined by LC-MS analysis using a standard curve in the text matrix. Individual concentration-time data were analyzed using Phoenix WinNonlin (Version 8.1) by the non-compartmental analysis (NCA) method.
READOUT KIND: Cmax (ng/g)

# CHEM SMILES, OBSERVED RESULT
rows = [
    ("CNC(=O)c1coc(-c2cnc3[nH]ccc3c2N[C@@H]2C[C@H](C)CN(C(=O)CC#N)C2)n1", 43800),
]

----------
Test: GI Exposure PK in Mice
Format: in vivo
Details: mouse; Jejunum; male BalbC mice, oral dose of 5 mg/kg
Protocol: The test compound was wetted with ˜0.025% of Tween-20 and triturated in a mortar and pestle, then slowly 0.5% of methyl cellulose was added to make up the final volume to 7.25 mL. […] Plasma and GI tissue levels of test compound were determined by LC-MS analysis using a standard curve in the text matrix. Individual concentration-time data were analyzed using Phoenix WinNonlin (Version 8.1) by the non-compartmental analysis (NCA) method.
READOUT KIND: Tmax (min)

# MOLECULE, OBSERVED RESULT
data = [
    ("CNC(=O)c1coc(-c2cnc3[nH]ccc3c2N[C@@H]2C[C@H](C)CN(C(=O)CC#N)C2)n1 [Example 31]", 30),
]

----------
System: IL-2 stimulated STAT5 phosphorylation on Tyr694 (JAK1/3)
Experiment: JAK1/3 cellular target modulation: IL-2 stimulated phospho-STAT5 in PBMC
Type: cell-based
Details: human PBMC, IL-2 25 ng/ml; read-out: IL2-STAT5 IC50
pIC50: −log10 of the molar value. Counter-ions that a name gives are not always drawn.
pIC50 reference

# COMPOUND, TESTED SYSTEM, pIC50
measured = [
    ("Cc1cnc(-c2cnc3[nH]ccc3c2N[C@@H]2CCCN(C(=O)CC#N)C2)o1", "IL-2 stimulated STAT5 phosphorylation on Tyr694 (JAK1/3)", "≥ 7.00"),
    ("C[C@@H]1C[C@H](Nc2c(-c3ccncn3)cnc3[nH]ccc23)CN(C(=O)CC#N)C1", "IL-2 stimulated STAT5 phosphorylation on Tyr694 (JAK1/3)", "< 6.00"),
    ("CNCCOc1cccc(-c2cnc3[nH]ccc3c2N[C@@H]2CCCN(C(=O)CC#N)C2)n1 [Example 58, hydrochloride]", "IL-2 stimulated STAT5 phosphorylation on Tyr694 (JAK1/3)", "6.00 to 7.00"),
    ("CN(C(=O)CC#N)C1CCN(c2nccc(-c3cnc4[nH]ccc4c3N[C@@H]3CCCN(C(=O)CC#N)C3)n2)C1 (stereo partly shown)", "IL-2 stimulated STAT5 phosphorylation on Tyr694 (JAK1/3)", "< 6.00"),
]

----------
Assay: GI Exposure PK in Mice
Type: in vivo
Details: mouse, circulating plasma (cardiac puncture); Circulating plasma; male BalbC mice, oral dose of 5 mg/kg
READOUT KIND: Tmax (h)

# CHEM SMILES, UOM, OBSERVED RESULT
data = [
    ("CNC(=O)c1coc(-c2cnc3[nH]ccc3c2N[C@@H]2C[C@H](C)CN(C(=O)CC#N)C2)n1", "h", 4),
]

----------
Tested on: IL-2 stimulated STAT5 phosphorylation on Tyr694 (JAK1/3)
Assay: JAK1/3 cellular target modulation: IL-2 stimulated phospho-STAT5 in PBMC
Assay type: cell-based
Settings: human PBMC, IL-2 25 ng/ml; read-out: IL2-STAT5 IC50
pIC50: −log10 of the molar value.

# CHEM SMILES, pIC50
rows = [
    ("Cc1ncc(-c2cnc3[nH]ccc3c2N[C@@H]2CCCN(C(=O)CC#N)C2)s1", "6.00 to 7.00"),
    ("N#CCC(=O)N1CCC[C@@H](Nc2c(-c3nnc[nH]3)cnc3[nH]ccc23)C1", "< 6.00"),
    ("CNC(=O)c1cnc(-c2cnc3[nH]ccc3c2N[C@@H]2CCCN(C(=O)CC#N)C2)s1", "≥ 7.00"),
    ("Cc1nc(-c2cnc3[nH]ccc3c2N[C@@H]2CCCN(C(=O)CC#N)C2)no1", "6.00 to 7.00"),
    ("Cc1cc(-c2cnc3[nH]ccc3c2N[C@@H]2CCCN(C(=O)CC#N)C2)[nH]n1", "≥ 7.00"),
    ("N#CCCN1CCC[C@@H](Nc2c(-c3ncco3)cnc3[nH]ccc23)C1", "6.00 to 7.00"),
    ("CS(=O)(=O)Nc1ccnc(-c2cnc3[nH]ccc3c2N[C@@H]2CCCN(C(=O)CC#N)C2)c1", "< 6.00"),
    ("CN(C)C(=O)c1coc(-c2cnc3[nH]ccc3c2N[C@@H]2CCCN(C(=O)CC#N)C2)n1", "6.00 to 7.00"),
    ("C[C@H]1C[C@@H](Nc2c(-c3nncs3)cnc3[nH]ccc23)CN(C(=O)CC#N)C1", "≥ 7.00"),
    ("CCOC(=O)c1cnc(-c2cnc3[nH]ccc3c2N[C@@H]2CCCN(C(=O)CC#N)C2)s1", "≥ 7.00"),
    ("Cc1ccc(-c2cnc3[nH]ccc3c2N[C@@H]2CCCN(C(=O)CC#N)C2)nc1", "6.00 to 7.00"),
    ("NC(=O)c1coc(-c2cnc3[nH]ccc3c2N[C@H]2CC[C@@H](O)C2)n1", "≥ 7.00"),
    ("CC(=O)c1cnc(-c2cnc3[nH]ccc3c2N[C@@H]2CCCN(C(=O)CC#N)C2)o1", "≥ 7.00"),
    ("CNC(=O)c1coc(-c2cnc3[nH]ccc3c2N[C@H]2C[C@@H](C)CN(C(=O)CC#N)C2)n1", "< 6.00"),
    ("O[C@H]1CC[C@@H](Nc2c(-c3ccccn3)cnc3[nH]ccc23)C1", "6.00 to 7.00"),
    ("CNC(=O)c1coc(-c2cnc3[nH]ccc3c2N[C@@H]2C[C@H](C)CN(C(=O)CC#N)C2)n1", "≥ 7.00"),
]
